# Test system: Bacillus subtilis
# ASSAY TEXT: Bactericidal activity against Bacillus subtilis ATCC 11774 by broth dilution method
# Format: functional
PROPERTY MEASURED: MBC (mg/mL)
Reply with just the number (in mg/mL).

For "CC(=O)n1nc(N2CCCCC2)c(C#N)c1N" , what is its reported MBC?
16

Then what about the compound "N#Cc1c(N2CCCCC2)n[nH]c1N" ?
8

Next entry: "N#Cc1c(N2CCOCC2)n[nH]c1N"
16

# repeat for "Cc1ccc(C)n1-c1[nH]nc(N2CCOCC2)c1C#N"
4

Please answer likewise for "CC(=O)n1nc(N2CCCC2)c(C#N)c1N"
16

Again, but for "CC(=O)c1nnc2c(C#N)c(N3CCCCC3)nn2c1C"
16

Next compound up: "N#Cc1nnc2c(C#N)c(N3CCCCC3)nn2c1N"
16

Here is the next compound: "Cc1cc(O)n2nc(N3CCOCC3)c(C#N)c2n1"
16

Field entry: "Cc1ccc(C)n1-c1[nH]nc(N2CCCCC2)c1C#N"
8

What do you have for "Cc1cc(C)n2nc(N3CCCCC3)c(C#N)c2n1" ?
16

Similarly, "N#Cc1c(N2CCCC2)n[nH]c1N" ?
8

What do you get for "CSc1c(C#N)c(N)nc2c(C#N)c(N3CCCCC3)nn12" ?
16

Would you kindly repeat that for "Cc1ccc(C)n1-c1[nH]nc(N2CCCC2)c1C#N" ?
8

* * *

# ASSAY TEXT: Cytotoxicity against african green monkey vero cells by MTT assay
# Assay type: cell-based
# CONDITION PARAMETERS: chlorocebus sabaeus
I'd appreciate it if you could supply CC50 values for the items below.
Answer with a number only, understood to be in µg/mL.

Need CC50 of "Cc1ccc(C)n1-c1[nH]nc(N2CCCC2)c1C#N" , thanks.
550

For "Cc1ccc(C)n1-c1[nH]nc(N2CCOCC2)c1C#N" then?
254

Could you do the same for "CSc1c(C#N)c(N)nc2c(C#N)c(N3CCCCC3)nn12" , please?
1750

Try this molecule too: "Cc1cc(C)n2nc(N3CCCCC3)c(C#N)c2n1"
1250

// next record "N#Cc1c(N2CCCCC2)n[nH]c1N"
550

Lookup "N#Cc1c(N2CCCC2)n[nH]c1N"
2500

* * *

# ASSAY TEXT: Selectivity index, ratio of CC50 for african green monkey vero cells to MIC for Escherichia coli ATCC 10536
# Type: functional
PROPERTY MEASURED: Selectivity Index
Output: the number by itself.

Reported Selectivity Index for "CC(=O)c1nnc2c(C#N)c(N3CCCCC3)nn2c1C" : what is it?
0.02

Further, for "N#Cc1c(N2CCCCC2)n[nH]c1N" ?
0.14

What about "CC(=O)n1nc(N2CCCC2)c(C#N)c1N" ?
0.18

# repeat for "Cc1cc(O)n2nc(N3CCOCC3)c(C#N)c2n1"
0

Also "Cc1ccc(C)n1-c1[nH]nc(N2CCCCC2)c1C#N" , if possible.
0.18

* * *

# Tested on: Escherichia coli
# ASSAY TEXT: Antibacterial activity against Escherichia coli ATCC 10536 assessed as growth inhibition at 1 mg/ml after 24 hrs by agar diffusion method
# Assay type: functional
# CONDITION PARAMETERS: ATCC 10536, 24 h, read-out: DIZ
The threshold is inclusive: zone of inhibition at 1000 µg/mL of exactly 10 mm counts as Satisfied; values below receive Not satisfied.

Is zone of inhibition at 1000 µg/mL at least 10 mm? Consider "N#Cc1c(N2CCCC2)n[nH]c1N"
Not satisfied

Next compound up: "N#Cc1c(N2CCCCC2)n[nH]c1N"
Satisfied

Can you check "N#Cc1c(N2CCOCC2)n[nH]c1N" next?
Satisfied

Same for "CC(=O)n1nc(N2CCCC2)c(C#N)c1N"
Satisfied

Further, for "Cc1cc(C)n2nc(N3CCCCC3)c(C#N)c2n1" ?
Satisfied

Now give it for "Cc1ccc(C)n1-c1[nH]nc(N2CCCCC2)c1C#N" too.
Not satisfied

Same thing, different compound: "Cc1ccc(C)n1-c1[nH]nc(N2CCCC2)c1C#N"
Satisfied

Now consider "CC(=O)c1nnc2c(C#N)c(N3CCCCC3)nn2c1C" and answer again.
Not satisfied

* * *

For each record, write down the corresponding zone of inhibition at 1000 µg/mL.
# System: Serratia marcescens
# ASSAY TEXT: Antibacterial activity against Serratia marcescens ATCC 13880 assessed as growth inhibition at 1 mg/ml after 24 hrs by agar diffusion method
# Type: functional
# CONDITION PARAMETERS: ATCC 13880, 24 h, read-out: DIZ
# number only, unit mm dropped from output

May I ask what zone of inhibition at 1000 µg/mL has been recorded for "Cc1ccc(C)n1-c1[nH]nc(N2CCCCC2)c1C#N" ?
6

Try this compound too: "CSc1c(C#N)c(N)nc2c(C#N)c(N3CCCCC3)nn12"
7

Ok, now "Cc1ccc(C)n1-c1[nH]nc(N2CCOCC2)c1C#N"
6

Field entry: "Cc1cc(C)n2nc(N3CCCCC3)c(C#N)c2n1"
7

Param item: "N#Cc1c(N2CCCCC2)n[nH]c1N"
6

Next compound up: "N#Cc1c(N2CCCC2)n[nH]c1N"
7

* * *

Answer each item with its documented Selectivity Index.
# ASSAY TEXT: Selectivity index, ratio of CC50 for african green monkey vero cells to MIC for Escherichia coli ATCC 10536
# Assay type: functional

Requested read-out: Selectivity Index. Entry: "CSc1c(C#N)c(N)nc2c(C#N)c(N3CCCCC3)nn12"
0.11

And for "Cc1ccc(C)n1-c1[nH]nc(N2CCCC2)c1C#N" ?
0.07

Here is the next compound: "Cc1ccc(C)n1-c1[nH]nc(N2CCOCC2)c1C#N"
0.06

Subsequent entry: "N#Cc1c(N2CCCC2)n[nH]c1N"
0.31

# repeat for "N#Cc1nnc2c(C#N)c(N3CCCCC3)nn2c1N"
0.09

Check "N#Cc1c(N2CCOCC2)n[nH]c1N" too.
0.29

Also need "Cc1cc(C)n2nc(N3CCCCC3)c(C#N)c2n1" , thanks.
0.08

* * *

# Test system: Staphylococcus aureus
# ASSAY TEXT: Antibacterial activity against Staphylococcus aureus ATCC 25923 assessed as growth inhibition by broth dilution method
# Type: functional
PROPERTY MEASURED: MIC (mg/mL)
Write down the numeric answer in mg/mL and omit the unit.

Endpoint output: MIC of "Cc1cc(O)n2nc(N3CCOCC3)c(C#N)c2n1" . Value?
16

Next entry: "Cc1cc(C)n2nc(N3CCCCC3)c(C#N)c2n1"
16

Repeat with "N#Cc1c(N2CCOCC2)n[nH]c1N"
16

Same read-out for "Cc1ccc(C)n1-c1[nH]nc(N2CCCCC2)c1C#N" ?
8

Okay, and "CSc1c(C#N)c(N)nc2c(C#N)c(N3CCCCC3)nn12" ?
16

Then what about the compound "N#Cc1nnc2c(C#N)c(N3CCCCC3)nn2c1N" ?
16

# repeat for "Cc1ccc(C)n1-c1[nH]nc(N2CCCC2)c1C#N"
8

* * *

# System: Pseudomonas aeruginosa
# ASSAY TEXT: Antibacterial activity against Pseudomonas aeruginosa ATCC 10145 assessed as growth inhibition at 1 mg/ml after 24 hrs by agar diffusion method
# Type: functional
# CONDITION PARAMETERS: ATCC 10145, 24 h, read-out: DIZ
PROPERTY MEASURED: zone of inhibition at 1000 µg/mL (mm)
Note: unit mm is implicit; provide only the numeric part.

So what's the measured zone of inhibition at 1000 µg/mL for this one? "CC(=O)n1nc(N2CCCC2)c(C#N)c1N"
6

Try this molecule next: "Cc1ccc(C)n1-c1[nH]nc(N2CCCC2)c1C#N"
6

Same question for "Cc1cc(O)n2nc(N3CCOCC3)c(C#N)c2n1" please.
7

Next molecule up: "Cc1cc(C)n2nc(N3CCCCC3)c(C#N)c2n1"
6

"Cc1ccc(C)n1-c1[nH]nc(N2CCOCC2)c1C#N" , same question.
6

Moving on to "CC(=O)n1nc(N2CCCCC2)c(C#N)c1N"
6

* * *

# ASSAY TEXT: Selectivity index, ratio of CC50 for african green monkey vero cells to MIC for Pseudomonas aeruginosa ATCC 10145
# Format: functional
Threshold rule: Selectivity Index greater than or equal to 0.3 is T; below that, F.

Tell me whether Selectivity Index is at least 0.3 here: "N#Cc1c(N2CCOCC2)n[nH]c1N"
F

Here is the next compound: "N#Cc1c(N2CCCCC2)n[nH]c1N"
F

Again, but for "CSc1c(C#N)c(N)nc2c(C#N)c(N3CCCCC3)nn12"
F

Now give it for "N#Cc1nnc2c(C#N)c(N3CCCCC3)nn2c1N" too.
F

One more compound: "N#Cc1c(N2CCCC2)n[nH]c1N"
T

Would you mind doing "Cc1cc(O)n2nc(N3CCOCC3)c(C#N)c2n1" as well?
F

Next up: "Cc1ccc(C)n1-c1[nH]nc(N2CCCCC2)c1C#N"
T
